- Test system: Staphylococcus aureus SA1199B
- Format: cell-based
Kindly supply the reported MIC values for the records listed here.

Prompt line: Report MIC, nothing else, for this molecule: CC(C)CC(C(=O)NC1C(=O)NC(CC(N)=O)C(=O)NC2C(=O)NC3C(=O)NC(C(=O)NC(C(=O)O)c4cc(O)cc(O)c4-c4cc3ccc4O)C(OC3CC(C)(N)C(O)C(C)O3)c3ccc(c(Cl)c3)Oc3cc2cc(c3OC2OC(CO)C(O)C(O)C2OC2CC(C)(NCc3ccc(-c4ccc(Cl)cc4)cc3)C(O)C(C)O2)Oc2ccc(cc2Cl)C1O)N(C)Cc1ccc(-c2ccc(Cl)cc2)cc1.O=C(O)C(F)(F)F (stereo not drawn)
Response line: 32 µg/mL

Prompt line: Report MIC, nothing else, for this molecule: CNC(CC(C)C)C(=O)NC1C(=O)NC(CC(N)=O)C(=O)NC2C(=O)NC3C(=O)NC(C(=O)NC(C(=O)O)c4cc(O)cc(O)c4-c4cc3ccc4O)C(OC3CC(C)(N)C(O)C(C)O3)c3ccc(c(Cl)c3)Oc3cc2cc(c3OC2OC(CO)C(O)C(O)C2OC2CC(C)(NCc3ccc(Oc4ccccc4)cc3)C(O)C(C)O2)Oc2ccc(cc2Cl)C1O (stereo not drawn) [Compound 4, p-phenoxybenzyl·A82846B]
Response line: ≤ 0.06 µg/mL

Prompt line: Report MIC, nothing else, for this molecule: CNC(CC(C)C)C(=O)NC1C(=O)NC(CC(N)=O)C(=O)NC2C(=O)NC3C(=O)NC(C(=O)NC(C(=O)O)c4cc(O)cc(O)c4-c4cc3ccc4O)C(OC3CC(C)(NCc4ccc(-c5ccc(Cl)cc5)cc4)C(O)C(C)O3)c3ccc(c(Cl)c3)Oc3cc2cc(c3OC2OC(CO)C(O)C(O)C2OC2CC(C)(NCc3ccc(-c4ccc(Cl)cc4)cc3)C(O)C(C)O2)Oc2ccc(cc2Cl)C1O.O=C(O)C(F)(F)F (stereo not drawn)
Response line: 16 µg/mL

* * *

Kindly supply the reported MIC values for the records listed here.
- Test system: Staphylococcus aureus SA1199B
- Assay type: cell-based
The response must be a number in mg/L with no trailing unit.

Prompt line: Report MIC, nothing else, for this compound: CNC(CC(C)C)C(=O)NC1C(=O)NC(CC(N)=O)C(=O)NC2C(=O)NC3C(=O)NC(C(=O)NC(C(=O)O)c4cc(O)cc(O)c4-c4cc3ccc4O)C(OC3CC(C)(N)C(O)C(C)O3)c3ccc(c(Cl)c3)Oc3cc2cc(c3OC2OC(CO)C(O)C(O)C2OC2CC(C)(NCc3ccc(Oc4cccc(Cl)c4)c([N+](=O)[O-])c3)C(O)C(C)O2)Oc2ccc(cc2Cl)C1O (stereo not drawn)
Response line: 0.5

Prompt line: Report MIC, nothing else, for this compound: CCCCCC#Cc1ccc(CNC2(C)CC(OC3C(Oc4c5cc6cc4Oc4ccc(cc4Cl)C(OC4CC(C)(N)C(O)C(C)O4)C4NC(=O)C(NC(=O)C6NC(=O)C(CC(N)=O)NC(=O)C(NC(=O)C(CC(C)C)NC)C(O)c6ccc(c(Cl)c6)O5)c5ccc(O)c(c5)-c5c(O)cc(O)cc5C(C(=O)O)NC4=O)OC(CO)C(O)C3O)OC(C)C2O)cc1 (stereo not drawn)
Response line: 4

Prompt line: Report MIC, nothing else, for this compound: C=CCCCCNC1(C)CC(OC2C(Oc3c4cc5cc3Oc3ccc(cc3Cl)C(OC3CC(C)(N)C(O)C(C)O3)C3NC(=O)C(NC(=O)C5NC(=O)C(CC(N)=O)NC(=O)C(NC(=O)C(CC(C)C)NC)C(O)c5ccc(c(Cl)c5)O4)c4ccc(O)c(c4)-c4c(O)cc(O)cc4C(C(=O)O)NC3=O)OC(CO)C(O)C2O)OC(C)C1O (stereo not drawn)
Response line: 0.125

Prompt line: Report MIC, nothing else, for this compound: CNC(CC(C)C)C(=O)NC1C(=O)NC(CC(N)=O)C(=O)NC2C(=O)NC3C(=O)NC(C(=O)NC(C(=O)O)c4cc(O)cc(O)c4-c4cc3ccc4O)C(OC3CC(C)(N)C(O)C(C)O3)c3ccc(c(Cl)c3)Oc3cc2cc(c3OC2OC(CO)C(O)C(O)C2OC2CC(C)(NCc3cc(-c4ccccc4)ccc3O)C(O)C(C)O2)Oc2ccc(cc2Cl)C1O (stereo not drawn)
Response line: 1

Prompt line: Report MIC, nothing else, for this compound: CNC(CC(C)C)C(=O)NC1C(=O)NC(CC(N)=O)C(=O)NC2C(=O)NC3C(=O)NC(C(=O)NC(C(=O)O)c4cc(O)cc(O)c4-c4cc3ccc4O)C(OC3CC(C)(N)C(O)C(C)O3)c3ccc(c(Cl)c3)Oc3cc2cc(c3OC2OC(CO)C(O)C(O)C2OC2CC(C)(NCCCCCCCCc3ccccc3)C(O)C(C)O2)Oc2ccc(cc2Cl)C1O (stereo not drawn)
Response line: 1

* * *

- System: Streptococcus pyogenes C203
- procedureText: broth micro-dilution MIC
- Assay type: cell-based
metricName: MIC

Prompt line: Report MIC, nothing else, for this molecule: CNC(CC(C)C)C(=O)NC1C(=O)NC(CC(N)=O)C(=O)NC2C(=O)NC3C(=O)NC(C(=O)NC(C(=O)O)c4cc(O)cc(O)c4-c4cc3ccc4O)C(OC3CC(C)(N)C(O)C(C)O3)c3ccc(c(Cl)c3)Oc3cc2cc(c3OC2OC(CO)C(O)C(O)C2OC2CC(C)(NCc3ccc(OCC(O)CO)cc3)C(O)C(C)O2)Oc2ccc(cc2Cl)C1O (stereo not drawn)
Response line: 16 µg/mL

Prompt line: Report MIC, nothing else, for this molecule: CNC(CC(C)C)C(=O)NC1C(=O)NC(CC(N)=O)C(=O)NC2C(=O)NC3C(=O)NC(C(=O)NC(C(=O)O)c4cc(O)cc(O)c4-c4cc3ccc4O)C(OC3CC(C)(N)C(O)C(C)O3)c3ccc(c(Cl)c3)Oc3cc2cc(c3OC2OC(CO)C(O)C(O)C2OC2CC(C)(NCc3ccc(OCCOC(C)(C)C)cc3)C(O)C(C)O2)Oc2ccc(cc2Cl)C1O (stereo not drawn)
Response line: ≤ 0.06 µg/mL

Prompt line: Report MIC, nothing else, for this molecule: CNC(CC(C)C)C(=O)NC1C(=O)NC(CC(N)=O)C(=O)NC2C(=O)NC3C(=O)NC(C(=O)NC(C(=O)O)c4cc(O)cc(O)c4-c4cc3ccc4O)C(OC3CC(C)(N)C(O)C(C)O3)c3ccc(c(Cl)c3)Oc3cc2cc(c3OC2OC(CO)C(O)C(O)C2OC2CC(C)(NCCCCCCCCCC#Cc3ccccc3)C(O)C(C)O2)Oc2ccc(cc2Cl)C1O (stereo not drawn)
Response line: ≤ 0.06 µg/mL

Prompt line: Report MIC, nothing else, for this molecule: CNC(CC(C)C)C(=O)NC1C(=O)NC(CC(N)=O)C(=O)NC2C(=O)NC3C(=O)NC(C(=O)NC(C(=O)O)c4cc(O)cc(O)c4-c4cc3ccc4O)C(OC3CC(C)(N)C(O)C(C)O3)c3ccc(c(Cl)c3)Oc3cc2cc(c3OC2OC(CO)C(O)C(O)C2OC2CC(C)(NCc3ccc(N4CCN(C)CC4)cc3)C(O)C(C)O2)Oc2ccc(cc2Cl)C1O (stereo not drawn)
Response line: ≤ 0.06 µg/mL

Prompt line: Report MIC, nothing else, for this molecule: CNC(CC(C)C)C(=O)NC1C(=O)NC(CC(N)=O)C(=O)NC2C(=O)NC3C(=O)NC(C(=O)NC(C(=O)O)c4cc(O)cc(O)c4-c4cc3ccc4O)C(OC3CC(C)(N)C(O)C(C)O3)c3ccc(c(Cl)c3)Oc3cc2cc(c3OC2OC(CO)C(O)C(O)C2OC2CC(C)(NCc3ccc(OS(C)(=O)=O)cc3)C(O)C(C)O2)Oc2ccc(cc2Cl)C1O (stereo not drawn)
Response line: ≤ 0.06 µg/mL

Prompt line: Report MIC, nothing else, for this molecule: CNC(CC(C)C)C(=O)NC1C(=O)NC(CC(N)=O)C(=O)NC2C(=O)NC3C(=O)NC(C(=O)NC(C(=O)O)c4cc(O)cc(O)c4-c4cc3ccc4O)C(OC3CC(C)(N)C(O)C(C)O3)c3ccc(c(Cl)c3)Oc3cc2cc(c3OC2OC(CO)C(O)C(O)C2OC2CC(C)(NCc3ccc(OS(=O)(=O)c4c(C)c(C)c(C)c(C)c4C)cc3)C(O)C(C)O2)Oc2ccc(cc2Cl)C1O (stereo not drawn)
Response line: ≤ 0.06 µg/mL

* * *

Kindly supply the reported MIC values for the records listed here.
- Tested on: Haemophilus influenzae RD
- procedureText: broth micro-dilution MIC
- Type: cell-based
- experimentalConditions: Haemophilus influenzae RD
The response must be a number in µg/mL with no trailing unit.

Prompt line: Report MIC, nothing else, for this compound: CNC(CC(C)C)C(=O)NC1C(=O)NC(CC(N)=O)C(=O)NC2C(=O)NC3C(=O)NC(C(=O)NC(C(=O)O)c4cc(O)cc(O)c4-c4cc3ccc4O)C(OC3CC(C)(N)C(O)C(C)O3)c3ccc(c(Cl)c3)Oc3cc2cc(c3OC2OC(CO)C(O)C(O)C2OC2CC(C)(NCCCCCCCCBr)C(O)C(C)O2)Oc2ccc(cc2Cl)C1O (centres unmarked)
Response line: 32

Prompt line: Report MIC, nothing else, for this compound: CNC(CC(C)C)C(=O)NC1C(=O)NC(CC(N)=O)C(=O)NC2C(=O)NC3C(=O)NC(C(=O)NC(C(=O)O)c4cc(O)cc(O)c4-c4cc3ccc4O)C(OC3CC(C)(N)C(O)C(C)O3)c3ccc(c(Cl)c3)Oc3cc2cc(c3OC2OC(CO)C(O)C(O)C2OC2CC(C)(NCc3ccc(-c4ccccc4)cc3)C(O)C(C)O2)Oc2ccc(cc2)C1O (centres unmarked)
Response line: 8

Prompt line: Report MIC, nothing else, for this compound: CNC(CC(C)C)C(=O)NC1C(=O)NC(CC(N)=O)C(=O)NC2C(=O)NC3C(=O)NC(C(=O)NC(C(=O)O)c4cc(O)cc(O)c4-c4cc3ccc4O)C(OC3CC(C)(N)C(O)C(C)O3)c3ccc(c(Cl)c3)Oc3cc2cc(c3OC2OC(CO)C(O)C(O)C2OC2CC(C)(NCc3ccc(N(C)c4ccccc4)cc3)C(O)C(C)O2)Oc2ccc(cc2Cl)C1O (centres unmarked)
Response line: 4

Prompt line: Report MIC, nothing else, for this compound: CNC(CC(C)C)C(=O)NC1C(=O)NC(CC(N)=O)C(=O)NC2C(=O)NC3C(=O)NC(C(=O)NC(C(=O)O)c4cc(O)cc(O)c4-c4cc3ccc4O)C(OC3CC(C)(N)C(O)C(C)O3)c3ccc(c(Cl)c3)Oc3cc2cc(c3OC2OC(CO)C(O)C(O)C2OC2CC(C)(NCc3ccc4cc(C)ccc4c3)C(O)C(C)O2)Oc2ccc(cc2Cl)C1O (centres unmarked)
Response line: 32

Prompt line: Report MIC, nothing else, for this compound: CNC(CC(C)C)C(=O)NC1C(=O)NC(CC(N)=O)C(=O)NC2C(=O)NC3C(=O)NC(C(=O)NC(C(=O)O)c4cc(O)cc(O)c4-c4cc3ccc4O)C(OC3CC(C)(N)C(O)C(C)O3)c3ccc(c(Cl)c3)Oc3cc2cc(c3OC2OC(CO)C(O)C(O)C2OC2CC(C)(NCc3c4ccccc4c(Cl)c4ccccc34)C(O)C(C)O2)Oc2ccc(cc2Cl)C1O (centres unmarked)
Response line: 16

Prompt line: Report MIC, nothing else, for this compound: CNC(CC(C)C)C(=O)NC1C(=O)NC(CC(N)=O)C(=O)NC2C(=O)NC3C(=O)NC(C(=O)NC(C(=O)O)c4cc(O)cc(O)c4-c4cc3ccc4O)C(OC3CC(C)(N)C(O)C(C)O3)c3ccc(c(Cl)c3)Oc3cc2cc(c3OC2OC(CO)C(O)C(O)C2OC2CC(C)(NCc3ccc(OC4CCCCC4)cc3)C(O)C(C)O2)Oc2ccc(cc2Cl)C1O (centres unmarked)
Response line: 16

Prompt line: Report MIC, nothing else, for this compound: CNC(CC(C)C)C(=O)NC1C(=O)NC(CC(N)=O)C(=O)NC2C(=O)NC3C(=O)NC(C(=O)NC(C(=O)O)c4cc(O)cc(O)c4-c4cc3ccc4O)C(OC3CC(C)(N)C(O)C(C)O3)c3ccc(c(Cl)c3)Oc3cc2cc(c3OC2OC(CO)C(O)C(O)C2OC2CC(C)(NCc3ccc(-c4ccc(Br)cc4)cc3)C(O)C(C)O2)Oc2ccc(cc2Cl)C1O (centres unmarked)
Response line: 32

Prompt line: Report MIC, nothing else, for this compound: C=CCCCCCCCCNC1(C)CC(OC2C(Oc3c4cc5cc3Oc3ccc(cc3Cl)C(OC3CC(C)(N)C(O)C(C)O3)C3NC(=O)C(NC(=O)C5NC(=O)C(CC(N)=O)NC(=O)C(NC(=O)C(CC(C)C)NC)C(O)c5ccc(c(Cl)c5)O4)c4ccc(O)c(c4)-c4c(O)cc(O)cc4C(C(=O)O)NC3=O)OC(CO)C(O)C2O)OC(C)C1O (centres unmarked)
Response line: 32

Prompt line: Report MIC, nothing else, for this compound: CNC(CC(C)C)C(=O)NC1C(=O)NC(CC(N)=O)C(=O)NC2C(=O)NC3C(=O)NC(C(=O)NC(C(=O)O)c4cc(O)cc(O)c4-c4cc3ccc4O)C(OC3CC(C)(N)C(O)C(C)O3)c3ccc(c(Cl)c3)Oc3cc2cc(c3OC2OC(CO)C(O)C(O)C2OC2CC(C)(NCc3ccc(OC(F)(F)C(F)F)cc3)C(O)C(C)O2)Oc2ccc(cc2Cl)C1O (centres unmarked)
Response line: 16
